Parameter: EC50. Scope: all listed entries.
- Target of assay: δ-opioid receptor (DOR) (Homo sapiens)
- Sequence (P41143 whole entry): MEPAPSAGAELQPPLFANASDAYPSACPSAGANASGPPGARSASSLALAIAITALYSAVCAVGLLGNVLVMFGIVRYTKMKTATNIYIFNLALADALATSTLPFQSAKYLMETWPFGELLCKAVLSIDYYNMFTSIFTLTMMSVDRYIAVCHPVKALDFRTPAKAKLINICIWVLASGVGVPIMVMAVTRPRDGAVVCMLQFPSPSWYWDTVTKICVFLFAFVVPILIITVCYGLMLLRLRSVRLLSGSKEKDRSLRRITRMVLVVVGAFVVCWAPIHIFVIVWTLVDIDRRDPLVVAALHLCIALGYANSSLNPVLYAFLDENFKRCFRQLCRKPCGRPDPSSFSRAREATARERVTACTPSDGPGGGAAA
- Assay: DOR agonist cAMP assay (HitHunter cAMP, forskolin-stimulated)
Square brackets hold non-standard residues; d marks the D form. Peptide text beside a SMILES is read from it. Dmt = Cc1cc(O)cc(C)c1C[C@H](N)C(=O)O; dNMeF = CN[C@H](Cc1ccccc1)C(=O)O; hPhe = N[C@@H](CCc1ccccc1)C(=O)O; β3hF = N[C@H](CC(=O)O)Cc1ccccc1; Nle = CCCC[C@H](N)C(=O)O; Sar = CNCC(=O)O
Measure name: EC50

Compound: CCC[C@@H](C(=O)O)N(C)C(=O)C[C@H](Cc1ccccc1)NC(=O)CNC(=O)[C@@H](C)NC(=O)[C@@H](N)Cc1c(C)cc(C(N)=O)cc1C
Measure name: EC50
Reported measurement: < 1 nM
//
Compound: Cc1cc(O)cc(C)c1C[C@H](N)C(=O)N[C@H](CCCNC(=N)N)C(=O)N[C@@H](Cc1ccccc1)C(=O)N(C)[C@H](Cc1ccccc1)C(N)=O [compound 14] (H-[Dmt][dR]F[dNMeF]-NH2)
Measure name: EC50
Reported measurement: 10 to 50 nM
//
Compound: CCCC[C@H](NC(=O)[C@H](CCc1ccccc1)NC(=O)[C@@H](C)NC(=O)[C@@H](N)Cc1c(C)cc(O)cc1C)C(N)=O [compound 48] (H-[Dmt][dA][hPhe][Nle]-NH2)
Measure name: EC50
Reported measurement: < 1 nM
//
Compound: CN[C@@H](Cc1ccc(O)cc1)C(=O)N[C@H](C)C(=O)NCC(=O)N[C@H](CC(=O)N(C)CC(N)=O)Cc1ccccc1
Measure name: EC50
Reported measurement: > 200 nM
//
Compound: Cc1cc(O)cc(C)c1C[C@H](N)C(=O)N[C@H](CC(=O)O)C(=O)NCC(=O)N[C@H](CC(=O)NCC(N)=O)Cc1ccccc1 [compound 179] (H-[Dmt][dD]G[β3hF]G-NH2)
Measure name: EC50
Reported measurement: < 1 nM
//
Compound: CCCC[C@@H](C(=O)O)N(C)C(=O)C[C@H](Cc1cccc(C)c1)NC(=O)CNC(=O)[C@@H](C)NC(=O)[C@@H](N)Cc1c(C)cc(O)cc1C
Measure name: EC50
Reported measurement: < 1 nM
//
Compound: Cc1cc(O)cc(C)c1C[C@H](N)C(=O)N[C@H](C)C(=O)N[C@H](C(=O)N[C@H](CC(=O)N(C)CC(N)=O)Cc1ccccc1)C(C)C [compound 69] (H-[Dmt][dA]V[β3hF][Sar]-NH2)
Measure name: EC50
Reported measurement: 50 to 200 nM
